tested on: SF-295 CNS; experiment: NCI-60 one-dose screen, 48 h (100 = growth as untreated, 0 = no growth, -100 = all killed); details: 10 µM unless noted
About 83,000 compounds went through this panel and 20% of them were active in at least one assay; those are over-represented in the sample as a whole.
Assign class by growth: not lower than 60% means Met; lower than 60% means Not met.

Has `O=C(Nc1ncc(Cc2cc(C(F)(F)F)ccc2Cl)s1)C(=S)N1CCOCC1` a recorded growth greater than or equal to 60%?
Met

Has `CCN1CCN(C(=O)[C@]23CC[C@@H](C)[C@H](C)[C@@H]2C2=CC[C@@H]4[C@@]5(C)C/C(=C/c6ccncc6)C(=O)C(C)(C)[C@@H]5CC[C@@]4(C)[C@]2(C)CC3)CC1` a recorded growth greater than or equal to 60%?
Not met

Has COc1cccc(C2C(C#N)=C(N)Oc3c2ccc2ccccc32)c1 (configuration not stated) a recorded growth greater than or equal to 60%?
Not met

Has Nc1ncnc2c1N=C(c1ccc([N+](=O)[O-])cc1)CC(c1ccc3c(c1)OCO3)N2 (configuration not stated) a recorded growth greater than or equal to 60%?
Met

Has `CCOC(=O)/C=C1\S/C(=N\Nc2cc(=O)[nH]c3ccc(OC)cc23)N(c2ccccc2)C1=O` a recorded growth greater than or equal to 60%?
Met

Has Clc1nc(N2CCC[N+]3(CC2)CC[N+]2(CCCNCC2)CC3)nc(N2CCC[N+]3(CC2)CC[N+]2(CCCNCC2)CC3)n1 (configuration not stated) a recorded growth greater than or equal to 60%?
Met

Has `Cc1ccc(-c2nc(C#N)c(S(=O)(=O)n3nc(C)cc3N)o2)cc1` a recorded growth greater than or equal to 60%?
Met

Has `COc1cc(C)cc(-c2c(-c3cc(N4CC(O)C4)nc(-c4cccnc4)n3)cnn2C)c1` a recorded growth greater than or equal to 60%?
Met

Has `Cn1cc(-c2ccc3occ(-c4cccc(-c5ccncc5)c4)c3n2)cn1` a recorded growth greater than or equal to 60%?
Not met

Has COc1ccccc1/C=C/C1=C(C)CCC(c2ccccc2OC)C1C (configuration not stated) a recorded growth greater than or equal to 60%?
Not met

Has `O=[N+]([O-])c1ccc(Oc2cccc3c(Oc4ccc([N+](=O)[O-])cc4[N+](=O)[O-])cccc23)c([N+](=O)[O-])c1` a recorded growth greater than or equal to 60%?
Met

Has CCn1c2ccccc2c2cc(C(O)c3cccc4ncccc34)ccc21 (configuration not stated) a recorded growth greater than or equal to 60%?
Not met

Has CCCC[N+]1(C)CCN=C1Cc1ccccc1 (configuration not stated) a recorded growth greater than or equal to 60%?
Met

Has `Cc1ccccc1NC(=O)Cn1cc(CN2CCN(c3ccnc4cc(Cl)ccc34)CC2)nn1` a recorded growth greater than or equal to 60%?
Met

Has `COc1ccc(-c2nc(SCCC(C)C)nc(N/N=C(/C)c3ccc(N)cc3)c2C#N)cc1` a recorded growth greater than or equal to 60%?
Met

Has `COc1cccc(-c2nn(-c3ccccc3)cc2-c2ccnc(-c3cccnc3)c2)c1` a recorded growth greater than or equal to 60%?
Met

Has `O=C(c1ccccc1)[C@@H](c1ccccc1)[C@]1(O)C(=O)Nc2ccccc21` a recorded growth greater than or equal to 60%?
Met

Has `COC(=O)c1c(C(=O)OC)c2ccc3c4ncccc4ccc3n2c1C(=O)c1ccc(C)cc1` a recorded growth greater than or equal to 60%?
Met

Has COc1cc(OCc2cccc(-c3ccccc3)c2C)cc(OC)c1CN1CCCCC1C(=O)NCCOCCOCCN (configuration not stated) a recorded growth greater than or equal to 60%?
Met

Has CCCC1Cc2cc(-n3nc(C)c4c3CC(C)(C)CC4=O)cc(NC3CCC(O)CC3)c2C(=O)N1 (configuration not stated) a recorded growth greater than or equal to 60%?
Not met

Has `CN(C)c1ccc(/C=C/C2=[N+](C)c3ccccc3C2(C)C)cc1` a recorded growth greater than or equal to 60%?
Not met

Has `Cc1[nH]c(C(=O)Nc2ccc(C(N)=O)cc2OC(C)C)c(Cl)c1Cl` a recorded growth greater than or equal to 60%?
Met

Has `O=C1C(Nc2ccc(Br)cc2)=C(I)C(=O)c2ncccc21` a recorded growth greater than or equal to 60%?
Met

Has `CS(=O)(=O)c1cccc(Nc2ncc3cc(-c4ccccc4Cl)ccc3n2)c1` a recorded growth greater than or equal to 60%?
Not met

Has `CN1/C(=C/C=C/c2n(Cc3ccc4ccccc4c3)c(Cl)c(Cl)[n+]2Cc2ccc3ccccc3c2)Oc2ccccc21` a recorded growth greater than or equal to 60%?
Not met

Has `CNC(=O)c1cc(Oc2cccc3nc(NC(=O)Nc4ccc(F)cc4F)ccc23)ccn1` a recorded growth greater than or equal to 60%?
Not met

----------
system: U251 CNS; test: NCI-60 one-dose screen, 48 h (100 = growth as untreated, 0 = no growth, -100 = all killed); conditions: 10 µM unless noted
The panel holds about 83,000 compounds, 20% with a hit somewhere; the sample as a whole holds those more often.
Assign class by growth: not lower than 80% means Condition met; lower than 80% means Condition not met.

Has `COc1cc(-c2c(-c3ccccc3)c[nH]c2C(=O)NCCCO)c(OC)c2c1OCO2` a recorded growth greater than or equal to 80%?
Condition met

Has `CC(=O)CC(=O)c1ccccc1.[Cu+2]` a recorded growth greater than or equal to 80%?
Condition met

Has C=C(CNCCc1ccc(O)cc1)[C@@H]1CC[C@]2(CO)CC[C@]3(C)[C@H](CC[C@@H]4[C@@]5(C)CCC(N)C(C)(C)[C@@H]5CC[C@]43C)[C@@H]12 (some centres undefined) a recorded growth greater than or equal to 80%?
Condition not met

Has `CCN=c1sc2c(n1NC(=O)c1cc3ccc1CCc1ccc(cc1)CC3)C(=O)c1ccccc1C2=O` a recorded growth greater than or equal to 80%?
Condition not met

Has Cc1[nH]c(C(=O)Nc2ccccc2OC2CCNC2)c(Cl)c1Cl (centres undefined) a recorded growth greater than or equal to 80%?
Condition not met

Has CCN1C(=O)N(CC)C2C1NC(=S)N2/N=C/C=C/c1cccs1 (centres undefined) a recorded growth greater than or equal to 80%?
Condition not met

Has `COc1cc2nc3cc([N+](=O)[O-])ccc3c(NCCCNCCO)c2cc1OC` a recorded growth greater than or equal to 80%?
Condition not met

Has `CCCCC1=C(Br)C(=O)c2ncccc2C1=O` a recorded growth greater than or equal to 80%?
Condition met

Has `O=C1NCCN1/N=C/c1c(Cl)n(Cc2ccc(Cl)cc2)c2ccccc12` a recorded growth greater than or equal to 80%?
Condition not met

Has CCOC(=O)C1=CCC(n2cc(F)c(=O)[nH]c2=O)O1 (centres undefined) a recorded growth greater than or equal to 80%?
Condition met

Has `COC12C=C/C(=C(/C(=O)OCc3ccccn3)C(=O)CCCCCCCCC3(OC)C=C/C(=C(/C(=O)OCc4ccccn4)C(=O)CCCCCCCC1)O3)O2` a recorded growth greater than or equal to 80%?
Condition not met

Has `COc1ccc(CNc2ccc3nc(CCC4CCCCC4)[nH]c3c2)cc1` a recorded growth greater than or equal to 80%?
Condition not met

Has CCOC(=O)C1=C(C)N(C)C(=O)N(C)C1c1ccccc1 (centres undefined) a recorded growth greater than or equal to 80%?
Condition met

Has `CCOc1cc(\C=N/N=C(N)/C(N)=N\N=C/c2ccc(O)c(OCC)c2)ccc1O` a recorded growth greater than or equal to 80%?
Condition met

Has CN(C)CC1C(=O)O[C@H]2[C@H]1CC/C(COC(=O)NCc1ccc(Cn3c(=O)sn(CCCI)c3=O)cc1)=C\CC[C@@]1(C)O[C@@H]21 (some centres undefined) a recorded growth greater than or equal to 80%?
Condition met

Has COc1cc2c(cc1-c1c(C)noc1C)ncc1nc(C3CCOCC3)n(C3CCC(OC(F)F)CC3)c12 (centres undefined) a recorded growth greater than or equal to 80%?
Condition not met

Has CCCC[N+]1(C)CCN=C1Cc1ccccc1 (centres undefined) a recorded growth greater than or equal to 80%?
Condition met

Has `COC(=O)[C@H](C)NC(=O)c1ccc(NC(=O)c2[nH]c(C)c(Cl)c2Cl)c(OCCN)c1` a recorded growth greater than or equal to 80%?
Condition met

Has `Cc1cc(C)n(C(=O)CSc2nc3sc4c(c3c(=O)n2-c2ccccc2)CCCCC4)n1` a recorded growth greater than or equal to 80%?
Condition met

Has `Cc1oc2ccc(O)c(CN3CCCCCC3)c2c1C(=O)Nc1ccc(C(F)(F)F)cc1` a recorded growth greater than or equal to 80%?
Condition not met

Has `Nc1ccc(N)c2c1C(=O)c1cccc([N+](=O)[O-])c1C2=O` a recorded growth greater than or equal to 80%?
Condition not met

Has CC(CN)[C@@H]1CC[C@]2(CO)CC[C@]3(C)[C@H](CC[C@@H]4[C@@]5(C)CCC(NCCO)C(C)(C)[C@@H]5CC[C@]43C)[C@@H]12 (some centres undefined) a recorded growth greater than or equal to 80%?
Condition not met

Has `COC(=O)CNC(=O)c1ccc(NC(=O)c2[nH]c(C)c(Cl)c2Cl)c(O[C@H]2CCNC2)c1` a recorded growth greater than or equal to 80%?
Condition met

Has CC1=C(C(=O)c2ccccc2)C(c2ccc3c(c2)OCO3)NC(=S)N1 (centres undefined) a recorded growth greater than or equal to 80%?
Condition not met

Has `COc1cc2cc(Oc3ccc(NC(=O)Nc4ccc(Cl)c(Cl)c4)cc3)c(C)nc2cc1OCCN1CCCCC1` a recorded growth greater than or equal to 80%?
Condition not met

Has `Oc1c(Cl)cc(Cl)c2ccc(CN3CCNCC3)nc12` a recorded growth greater than or equal to 80%?
Condition not met

Has `CC1(C)CC[C@]2(CO)CC[C@]3(C)[C@H](CC[C@@H]4[C@@]5(C)CC[C@H](O)C(C)(C)[C@@H]5CC[C@]43C)[C@H]2[C@H]1O` a recorded growth greater than or equal to 80%?
Condition not met

Has CCOC(=O)CC1C(CNC(=O)NC)OC(n2cnc3c(NC(=O)Nc4ccccc4)ncnc32)C1O[Si](C)(C)C(C)(C)C (centres undefined) a recorded growth greater than or equal to 80%?
Condition not met

Has `COc1cccc(/C=C2\CCc3ccccc3C2=O)c1` a recorded growth greater than or equal to 80%?
Condition met

Has `O=c1[nH]c(CN2CCN(c3ccccc3)CC2)nc2c(Br)cc(Br)cc12` a recorded growth greater than or equal to 80%?
Condition met

Has `O=c1c2cccc3c(N4CCOCC4)ccc(c32)c2nc3ccccc3n12` a recorded growth greater than or equal to 80%?
Condition met

Has `O=C1c2ccccc2-c2c1c1ccncc1c(=O)n2CCCn1ccnc1` a recorded growth greater than or equal to 80%?
Condition not met
